These data points were gathered from patent EP4660185A1.

# targetSystem: human sodium channels Nav 1.7 (Homo sapiens, UniProt Q15858)
# Sequence (Q15858 whole entry): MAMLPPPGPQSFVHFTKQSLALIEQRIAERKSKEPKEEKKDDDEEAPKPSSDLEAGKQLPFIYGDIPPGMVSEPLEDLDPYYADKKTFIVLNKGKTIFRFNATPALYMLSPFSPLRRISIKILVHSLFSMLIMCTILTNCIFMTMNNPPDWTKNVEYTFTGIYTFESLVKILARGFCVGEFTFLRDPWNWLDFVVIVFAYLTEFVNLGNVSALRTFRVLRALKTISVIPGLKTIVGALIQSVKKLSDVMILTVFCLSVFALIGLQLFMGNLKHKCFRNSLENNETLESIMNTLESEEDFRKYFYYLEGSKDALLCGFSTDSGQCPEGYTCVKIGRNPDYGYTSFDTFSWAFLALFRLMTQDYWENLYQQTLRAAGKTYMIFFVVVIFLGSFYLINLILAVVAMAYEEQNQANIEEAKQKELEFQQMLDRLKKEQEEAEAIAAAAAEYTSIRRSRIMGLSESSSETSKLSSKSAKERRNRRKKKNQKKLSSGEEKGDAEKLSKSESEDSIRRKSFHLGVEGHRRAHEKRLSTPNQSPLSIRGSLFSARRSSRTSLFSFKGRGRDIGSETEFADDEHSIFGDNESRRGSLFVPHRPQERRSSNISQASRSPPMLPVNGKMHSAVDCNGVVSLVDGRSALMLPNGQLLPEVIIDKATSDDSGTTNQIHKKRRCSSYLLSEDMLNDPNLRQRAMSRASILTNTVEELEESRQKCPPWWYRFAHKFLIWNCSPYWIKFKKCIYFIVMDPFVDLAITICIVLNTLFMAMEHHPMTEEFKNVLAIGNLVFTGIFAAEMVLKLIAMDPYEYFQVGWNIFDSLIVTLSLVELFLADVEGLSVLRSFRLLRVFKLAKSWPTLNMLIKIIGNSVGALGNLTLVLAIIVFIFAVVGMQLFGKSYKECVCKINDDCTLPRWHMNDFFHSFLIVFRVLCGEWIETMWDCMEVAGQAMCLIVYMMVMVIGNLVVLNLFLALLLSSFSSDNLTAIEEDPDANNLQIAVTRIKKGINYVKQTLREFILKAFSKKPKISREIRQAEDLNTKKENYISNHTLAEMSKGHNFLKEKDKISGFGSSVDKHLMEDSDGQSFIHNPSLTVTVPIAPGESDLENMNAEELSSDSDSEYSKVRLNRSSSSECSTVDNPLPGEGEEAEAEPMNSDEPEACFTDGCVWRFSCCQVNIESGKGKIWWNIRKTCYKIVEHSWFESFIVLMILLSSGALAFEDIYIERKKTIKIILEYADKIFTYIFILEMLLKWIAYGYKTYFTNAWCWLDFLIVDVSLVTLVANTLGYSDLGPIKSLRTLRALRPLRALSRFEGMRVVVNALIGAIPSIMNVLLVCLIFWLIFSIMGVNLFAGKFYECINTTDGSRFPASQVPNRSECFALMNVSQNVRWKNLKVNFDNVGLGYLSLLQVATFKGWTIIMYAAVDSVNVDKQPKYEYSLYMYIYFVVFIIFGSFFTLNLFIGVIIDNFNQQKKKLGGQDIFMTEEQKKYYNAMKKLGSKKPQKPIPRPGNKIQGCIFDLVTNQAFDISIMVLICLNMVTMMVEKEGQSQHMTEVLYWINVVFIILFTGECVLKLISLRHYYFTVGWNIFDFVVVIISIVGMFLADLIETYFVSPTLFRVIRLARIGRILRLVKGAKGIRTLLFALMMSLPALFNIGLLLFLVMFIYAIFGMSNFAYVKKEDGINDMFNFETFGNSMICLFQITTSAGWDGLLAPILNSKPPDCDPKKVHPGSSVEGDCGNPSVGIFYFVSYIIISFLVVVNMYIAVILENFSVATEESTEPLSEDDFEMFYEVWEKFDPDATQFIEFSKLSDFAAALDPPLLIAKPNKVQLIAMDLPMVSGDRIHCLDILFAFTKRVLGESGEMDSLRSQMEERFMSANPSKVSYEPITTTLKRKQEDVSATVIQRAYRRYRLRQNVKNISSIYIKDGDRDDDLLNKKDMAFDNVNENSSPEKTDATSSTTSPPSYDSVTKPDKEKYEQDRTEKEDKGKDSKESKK
# protocolText: Automated whole-cell voltage-clamp (ScreenPatch 384P) sodium current block, Nav 1.7
# cond: CHO cells stably expressing human Nav 1.7; holding -100 mV, inactivation step -40 mV for 8 seconds, test step 0 mV (TP1A); exposure at least five minutes, room temperature; mean where tested in two or more assays; read-out: Nav1.7 IC50
The following molecules are shown together with reported IC50 values.
reportedEndpoint: IC50

* CCOc1ccc(-c2cncc(C(=O)Nc3cc4c(OC)ccc(F)c4[nH]3)n2)cc1 [compound 77] | > 1 µM
* CCOc1ccc(-c2cncc(C(=O)Nc3cc4c(F)ccc(OC)c4[nH]3)n2)cn1 [compound 69] | > 1 µM
* CCOc1ccc(-c2cncc(C(=O)N(C)c3cc4c(F)ccc(OC)c4[nH]3)n2)cn1 [compound 71] | > 1 µM
* CCOc1ccc(-c2cncc(C(=O)N[C@@H]3Cc4c(F)ccc(OC)c4C3)n2)cn1 [compound 81] | > 1 µM
* CCOc1ccc(-c2cncc(C(=O)NCCc3cc(OC)cnc3C)n2)cc1 [compound 18] | > 1 µM
* COc1cnc(F)c(CCNC(=O)c2cncc(-c3ccc(C(C)(C)O)cc3)n2)c1 [compound 56] | > 1 µM
* CCOc1ccc(-c2cncc(C(=O)NCc3ccc4ccc(OC)cn34)n2)cn1 [compound 80] | > 1 µM
* [2H]C([2H])([2H])Oc1ccc(-c2cncc(C(=O)NC[C@@H](O)c3cc(OC)cc(OC)c3)n2)cc1 [compound 93] | > 1 µM
* CCOc1ccc(-c2cncc(C(=O)NCCc3cc(C(C)O)ccc3F)n2)cn1 (stereo not drawn) [compound 43] | 0.5 to 1 µM
* CCOc1ccc(-c2cnnc(C(=O)NCCc3cc(OC)cnc3F)c2)cn1 [compound 112] | > 1 µM
* CCOc1ccc(-c2ccnc(C(=O)NCCc3cc(OC)cnc3F)c2)cn1 [compound 114] | > 1 µM
* COc1ccc(-c2cncc(C(=O)NC[C@@H](O)c3cc(OC)cc(OC)c3)n2)cc1 [compound 55] | > 1 µM
* CCOc1ccc(-c2ccnc(C(=O)NCCc3cc(OC)cnc3F)c2)cc1 [compound 105] | < 0.5 µM
* CCOc1ccc(-c2cncc(C(=O)NC[C@H](O)c3cc(OC)cc(OC)c3)n2)cc1 [compound 24] | > 1 µM
* [2H]C([2H])([2H])Oc1cc(OC([2H])([2H])[2H])cc([C@H](O)CNC(=O)c2cncc(-c3ccc(OC(F)F)nc3)n2)c1 [compound 91] | > 1 µM
* COc1cc(CCNC(=O)c2cncc(-c3ccc(OC(C)C)cc3)n2)cc(OC)c1 [compound 1] | > 1 µM
* CCOc1ccc(-c2cncc(C(=O)Nc3nc4c(F)ccc(OC)c4[nH]3)n2)cn1 [compound 64] | > 1 µM
* CCOc1ccc(-c2cncc(C(=O)Nc3cc4c(OC)ccc(F)c4n3C)n2)cn1 [compound 75] | > 1 µM
* COc1cnc(F)c(CCNC(=O)c2cncc(-c3ccc(C(C)O)nc3)n2)c1 (stereo not drawn) [compound 58] | > 1 µM
* CCOc1ccc(-c2cncc(C(=O)NCCc3ccccc3F)n2)cc1 [compound 6] | < 0.5 µM
* CCOc1ccc(-c2cccc(C(=O)NCCc3cc(OC)cnc3F)n2)cn1 [compound 108] | > 1 µM
* COc1cnc(F)c(CCNC(=O)c2cncc(-c3ccc(OC(F)F)nc3)n2)c1 [compound 51] | > 1 µM
* [2H]C([2H])([2H])Oc1ccc(-c2cncc(C(=O)NCCc3ccccc3F)n2)cn1 [compound 89] | > 1 µM
* CCOc1ccc(-c2cncc(C(=O)NCc3cnc4ccc(OC)cn34)n2)cn1 [compound 86] | > 1 µM
* [2H]C([2H])([2H])Oc1cc(OC([2H])([2H])[2H])cc([C@H](O)CNC(=O)c2cncc(-c3ccc(OC(F)F)cc3)n2)c1 [compound 96] | > 1 µM
* COc1cc(CCNC(=O)c2cncc(-c3ccc(OC(C)C)nc3)n2)cc(OC)c1 [compound 28] | 0.5 to 1 µM
* CCOc1ccc(-c2cc(C(=O)NCCc3cc(OC)cnc3F)ccn2)cc1 [compound 104] | > 1 µM
* CCOc1ccc(-c2cncc(C(=O)N[C@@H]3Cc4c(OC)cnc(F)c4C3)n2)cn1 [compound 84] | > 1 µM
* CCOc1ccc(-c2cncc(C(=O)Nc3cc4c(F)ccc(OC)c4[nH]3)n2)cc1 [compound 76] | > 1 µM
* CCOc1ccc(-c2cncc(C(=O)Nc3cc4cccc(OC)c4[nH]3)n2)cn1 [compound 72] | > 1 µM
* [2H]C([2H])([2H])Oc1cc(OC([2H])([2H])[2H])cc([C@H](O)CNC(=O)c2cncc(-c3ccc(OC([2H])([2H])[2H])nc3)n2)c1 [compound 92] | > 1 µM
* COc1cc(CCNC(=O)c2cncc(-c3ccc(OC(F)F)cc3)n2)cc(OC)c1 [compound 2] | 0.5 to 1 µM
* CCOc1ccc(-c2cncc(C(=O)NCCc3cc(OC)cnc3F)n2)cn1 [compound 34] | 0.5 to 1 µM
